Value source: the COVID Moonshot data (paper PMC11187573)

TGT: SARS-CoV-2 Main Protease (SARS-CoV-2) (UniProt P0DTD1)
APPLIED_CONDITIONS: 20.0 µM
Measured inhibition of individual entries
Kindly provide the numeric value in % only, without the unit symbol.

Worked cases, inhibition given:
                                   compound                                       tgt  endpoint_result
0  O=C1CN(c2nnc(C3CCC(=O)N3)n2CCn2cc(Cl)cn2)CCN1 (stereo not drawn)  SARS-CoV-2 Main Protease (SARS-CoV-2) (UniProt P0DTD1)            -2.26
1  CN(CCC(N)=O)C(=O)C(=O)N1Cc2ccccc2C(c2ccccc2)C1 (stereo not drawn)  SARS-CoV-2 Main Protease (SARS-CoV-2) (UniProt P0DTD1)           -0.756
2         CC(=O)NCc1cccc(NC(=O)Cc2cncnc2)c1  SARS-CoV-2 Main Protease (SARS-CoV-2) (UniProt P0DTD1)             3.15
3  C=CC(=O)N(C1COC2(CCC2)C1)C(C(=O)NC(C)(C)C)c1cccnc1 (stereo not drawn)  SARS-CoV-2 Main Protease (SARS-CoV-2) (UniProt P0DTD1)             12.6
4  O=[N+]([O-])c1cnc(Sc2nnc(-c3ccco3)n2-c2ccc(OCc3ccccc3)cc2)s1  SARS-CoV-2 Main Protease (SARS-CoV-2) (UniProt P0DTD1)             31.8
5        Cc1ccncc1NC(=O)C(C)(C)c1cccc(Cl)c1  SARS-CoV-2 Main Protease (SARS-CoV-2) (UniProt P0DTD1)             49.3

# lookup: inhibition of O=C(C(F)Cl)N1CCCC(c2nc3ccccc3s2)C1 (stereo not drawn)
7.1

// inhibition lookup, key: C#Cc1cccc(N(C(=O)C=C)C(C(=O)NC(C)(C)C)c2cccnc2)c1 (stereo not drawn)
-3.84

Item under review: Cc1nc(CCn2c(C3CCC(=O)N3)nnc2N2CCOC(C)(C)C2)n[nH]1 (stereo not drawn) . Reported inhibition?
-0.233

Quick check: inhibition of Cc1ccccc1CN1CCN(C(=O)C(F)C(C)C)CC1 (stereo not drawn) ?
2.74

# get_value(readout='inhibition', item= CNS(=O)(=O)c1ccc(C(C)NC(=O)NC(C)(C)C)cc1 (stereo not drawn) )
-0.809

Record request: inhibition value, item CCOC(=O)N1CCC(NC(=O)Nc2cn(C)c(=O)c3ccccc23)CC1
-1.08

// returns reported inhibition for input CNC(=O)c1ccc(CS(=O)(=O)NCC(F)(F)c2ccc(F)cc2F)cc1
6.87
